Item-by-item account of IC50
# testedOn: system Xc^− (Homo sapiens)
# Sequence (Q9UPY5 whole entry): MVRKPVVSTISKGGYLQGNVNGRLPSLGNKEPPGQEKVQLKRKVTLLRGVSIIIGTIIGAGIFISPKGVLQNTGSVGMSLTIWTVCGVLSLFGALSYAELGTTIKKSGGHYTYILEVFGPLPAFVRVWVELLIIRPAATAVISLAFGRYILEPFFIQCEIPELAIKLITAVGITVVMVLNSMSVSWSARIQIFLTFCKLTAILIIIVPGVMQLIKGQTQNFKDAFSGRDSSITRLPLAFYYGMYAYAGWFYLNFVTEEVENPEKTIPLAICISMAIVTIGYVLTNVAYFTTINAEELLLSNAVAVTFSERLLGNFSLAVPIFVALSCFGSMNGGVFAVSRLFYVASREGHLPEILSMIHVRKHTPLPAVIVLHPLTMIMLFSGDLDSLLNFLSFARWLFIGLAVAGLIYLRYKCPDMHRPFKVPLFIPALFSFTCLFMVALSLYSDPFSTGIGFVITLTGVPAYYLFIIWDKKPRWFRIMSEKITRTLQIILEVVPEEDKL
# Sequence (P08195 102-630 partner): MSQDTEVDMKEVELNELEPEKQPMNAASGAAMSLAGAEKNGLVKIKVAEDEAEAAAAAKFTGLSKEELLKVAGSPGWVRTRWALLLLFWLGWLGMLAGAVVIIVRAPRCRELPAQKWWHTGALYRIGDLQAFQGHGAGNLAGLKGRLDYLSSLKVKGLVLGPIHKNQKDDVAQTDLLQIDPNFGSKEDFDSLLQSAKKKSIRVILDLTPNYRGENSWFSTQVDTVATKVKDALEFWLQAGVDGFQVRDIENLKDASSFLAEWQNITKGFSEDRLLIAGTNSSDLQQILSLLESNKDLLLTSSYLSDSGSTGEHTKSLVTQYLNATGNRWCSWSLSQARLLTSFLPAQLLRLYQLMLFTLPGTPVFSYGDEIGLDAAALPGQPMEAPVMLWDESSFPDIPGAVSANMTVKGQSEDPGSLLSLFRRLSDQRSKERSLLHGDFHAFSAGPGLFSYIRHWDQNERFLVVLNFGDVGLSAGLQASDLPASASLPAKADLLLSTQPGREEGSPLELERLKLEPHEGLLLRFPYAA
# assay: [^14C]L-Cystine uptake assay
# Type: cell-based
# Parameters: endogenous in cells; host or cells: H4 cells
# conditionDescription: H4 cells, sodium-free HEPES buffer, 0.5 μM L-[14C]Cystine and 4.5 μM L-Cystine, 1 hour at 37° C.; read-out: pIC50 [^14C] L-Cystine uptake assay (converted)

Please review the following examples before continuing.
compound: Cc1cc2c(c(Cl)n1)-c1ccnnc1C(C)C(=O)N2CC(=O)Nc1ccc(C(F)(F)F)cc1 (stereo not shown)
IC50: < 0.0158 µM
//
compound: Cc1cc2c(c(F)n1)-c1ccc(F)cc1CC(=O)N2CC(=O)Nc1ccc(C(F)(F)F)cc1
IC50: 0.0158 to 0.0398 µM
//
compound: Cc1cc2c(cn1)-c1ccc(Cl)cc1C(C)C(=O)N2CC(=O)Nc1ccc(C(F)F)cc1 (single isomer, unassigned)
IC50: 0.0158 to 0.0398 µM
//
compound: Cc1cc2c(c(C#N)n1)-c1cccnc1C(C)C(=O)N2CC(=O)Nc1ccc(Cl)c(F)c1 (single isomer, unassigned)
IC50: < 0.0158 µM
//
compound: COc1nc(C)cc2c1-c1cncnc1CC(=O)N2CC(=O)Nc1ccc(C(F)(F)F)cc1
IC50: 0.0158 to 0.0398 µM
//
compound: C[C@H]1C(=O)N(CC(=O)Nc2ccc(C(F)F)cc2)c2cc(N3CC[C@H](O)C3)nc(F)c2-c2cccnc21 (single isomer, unassigned)
IC50: < 0.0158 µM

Consider the compound shown here: Cc1cc2c(c(F)n1)-c1sccc1CC(=O)N2CC(=O)Nc1ccc(C(F)(F)F)cc1 What is its recorded IC50? 0.0398 to 0.1 µM
